Experiment description: Pharmacokinetics of noribogaine in healthy volunteers, ascending single oral dose (plasma noribogaine and noribogaine glucuronide)
Stated conditions: male, human, plasma, po, 10 mg
Readout name: half-life (h)

INSERT INTO results (compound, readout_name, value_units, meas_value) VALUES
  ('CCC1CC2CC3c4[nH]c5ccc(O)cc5c4CCN(C2)C13 (stereo not shown) [Noribogaine]', 'half-life', 'h', 49.2);

###

Experiment description: Pharmacokinetics of noribogaine in healthy volunteers, ascending single oral dose (plasma noribogaine and noribogaine glucuronide)
Stated conditions: male, human, plasma, po, 60 mg
Readout name: Cmax

INSERT INTO assay_data (compound, meas_value) VALUES
  ('CCC1CC2CC3c4[nH]c5ccc(O)cc5c4CCN(C2)C13 (stereo not shown) [Noribogaine]', '116 ng/mL');
